Attribute: inhibition at 0.1 µM
- system.name: human recombinant adrenergic α2A receptor (Homo sapiens)
- Construct: expressed in transfected cells; host or cells: insect Sf9 cells
- Sequence (P08913 whole entry): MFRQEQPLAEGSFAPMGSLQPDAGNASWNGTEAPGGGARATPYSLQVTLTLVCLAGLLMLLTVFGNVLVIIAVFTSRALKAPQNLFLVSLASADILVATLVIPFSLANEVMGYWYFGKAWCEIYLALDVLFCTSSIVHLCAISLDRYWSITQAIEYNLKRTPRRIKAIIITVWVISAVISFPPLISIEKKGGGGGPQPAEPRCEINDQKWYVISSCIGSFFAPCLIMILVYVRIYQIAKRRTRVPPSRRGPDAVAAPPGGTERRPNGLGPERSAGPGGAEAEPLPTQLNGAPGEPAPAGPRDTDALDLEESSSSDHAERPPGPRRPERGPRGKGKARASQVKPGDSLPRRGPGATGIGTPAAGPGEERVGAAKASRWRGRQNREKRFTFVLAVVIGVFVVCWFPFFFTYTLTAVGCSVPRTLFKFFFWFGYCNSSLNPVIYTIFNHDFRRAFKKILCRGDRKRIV
- protocol.notes: Adrenergic α2A radioligand binding ([3H]MK-912)
- test.settings: read-out: Adrenergic (0.1 μM) a2A, percent inhibition of specific binding; compound at 0.1 μM; 1 nM [3H]MK-912
Entry rule: numbers only, all in %.

Some compounds with recorded inhibition at 0.1 µM:
Cc1ccc2c(c1)c1c(n2-c2cscc2-c2ccc(C)s2)CCN(C)C1
92
Cc1ccc2c(c1)c1c(n2-c2cscc2-c2ccc(S(C)(=O)=O)cc2)CCN(C)C1
90

Consider the additional compound presented here.
The value of inhibition at 0.1 µM measured for the compound "Cc1ccc2c(c1)c1c(n2-c2cscc2-c2ccc3cnccc3c2)CCN(C)C1" turned out to be 90

Reference for the values: patent US9187471B2
